- Test system: SF-295
- protocol: NCI 60 panel five-dose growth inhibition, CNS Cancer
- Type: cell-based, human
- assay-context: Homo sapiens; SF-295, CNS Cancer
measurement-type: GI50 (nM)

>>> df
                                   compound  output_unit  inequality_operator  data_value
0  COc1ccc(-c2n[nH]nc2-c2cc(OC)c(OC)c(OC)c2)cc1 [Example 6]           nM                    <          10
1  COc1cc(-c2n[nH]nc2-c2ccc3ccccc3n2)cc(OC)c1OC [Example 4]           nM                    =        10.8
2  COc1cc(-c2n[nH]nc2-c2cc(OC)c(OC)c(OC)c2)cc(OC)c1OC [Example 3]           nM                    =        14.4
3  COc1cc(-c2n[nH]nc2-c2ccc3c(c2)OCCO3)cc(OC)c1OC [Example 7]           nM                    =        98.9
4  COc1ccc(-c2n[nH]nc2-c2cc(OC)cc(OC)c2)cc1 [Example 5]           nM                    <          10

###

- System: COLO 205
measurement-type: GI50 (nM)

In [3]: df
Out[3]:
                      smiles_representation  measurement_type  data_value
0  COc1cc(-c2n[nH]nc2-c2ccc3ccccc3n2)cc(OC)c1OC              GI50         149
1  COc1ccc(-c2n[nH]nc2-c2cc(OC)cc(OC)c2)cc1              GI50        29.2
2  COc1ccc(-c2n[nH]nc2-c2cc(OC)c(OC)c(OC)c2)cc1              GI50        26.7
3  COc1cc(-c2n[nH]nc2-c2cc(OC)c(OC)c(OC)c2)cc(OC)c1OC              GI50         228
4  COc1cc(-c2n[nH]nc2-c2ccc3c(c2)OCCO3)cc(OC)c1OC              GI50         311

###

- System: MDA-MB-468
- protocol: NCI 60 panel five-dose growth inhibition, Breast Cancer
- Type: cell-based, human
- assay-context: MDA-MB-468, Breast Cancer
A collection of compounds and their measured TGI
measurement-type: TGI (µM)

                      smiles_representation  system_tested  data_value
0  COc1cc(-c2n[nH]nc2-c2cc(OC)c(OC)c(OC)c2)cc(OC)c1OC     MDA-MB-468        26.0
1  COc1ccc(-c2n[nH]nc2-c2cc(OC)c(OC)c(OC)c2)cc1     MDA-MB-468        30.5
2  COc1cc(-c2n[nH]nc2-c2ccc3c(c2)OCCO3)cc(OC)c1OC     MDA-MB-468        25.8
3  COc1cc(-c2n[nH]nc2-c2ccc3ccccc3n2)cc(OC)c1OC     MDA-MB-468        0.08
4  COc1ccc(-c2n[nH]nc2-c2cc(OC)cc(OC)c2)cc1     MDA-MB-468        22.4
